Reference source for all entries: ChEMBL document CHEMBL1129298

Target: Angiotensin II receptor (Rattus norvegicus) (UniProt P29089+P25095+P35351)
Experiment: In vivo inhibitory activity against angiotensin II induced pressor response in anesthetized normotensive rats
Format: functional, organism-based
Consider the following molecules; for each one, report its log10(ID50).
Scale type: logarithmic (base 10). Underlying ID50 unit: mg/kg.

CCc1nc(C(C)(C)O)c(C(=O)O)n1Cc1ccc(-c2ccccc2-c2nn[nH]n2)cc1 :: -1.72

Hi team, please reply with log10(ID50) for each item in this list.
1. CCCc1nc(C(=O)O)c(CO)n1Cc1ccc(-c2ccccc2C(=O)O)cc1
2. CCCc1nc(CO)c(CO)n1Cc1ccc(-c2ccccc2C(=O)O)cc1

Result ::
1. 0.94
2. 0.32

Hi team, please reply with log10(ID50) for each item in this list.
1. CCCc1nc(C(C)(C)O)c(C(=O)OCC)n1Cc1ccc(-c2ccccc2C(=O)O)cc1
2. CCCc1nc(C)c(C(=O)O)n1Cc1ccc(-c2ccccc2C(=O)O)cc1

Result ::
0.08
-1.02

Query :: Please report the recorded log10(ID50) for CCCc1nc(C(C)(O)CC)c(C(=O)O)n1Cc1ccc(-c2ccccc2C(=O)O)cc1 (stereo unspecified) .
Result :: -1.13
